Would you mind telling me the reported Jurkat Cell Binding (FOI) of each entry?
# measured-on: T1, human CD3 (human, UniProt P07766 23-207; P04234 22-171; P09693 23-182)
# T1 construct: whole, on cells; also called CD3 on Jurkat cells; CD3 on human primary T cells
# method: flow cytometry, Jurkat cells, 25 nM antibody
Respond with the bare value in FOI.

response.value for mAb 306 (antibody, V domains shown, VH and VL only) VH: EVQLLESGGGLVQPGGSLRLSCAASGFTFNSYAMSWVRQAPGRGLEWVSAISGRKSTTYYADSVKGRFTISRDNSKNTLYLQMNSLRAEDTAVYYCAKLWNYYYYYMDVWGKGTTVTVSS VL: SYELTQPLSVSVALGQTARITCGGNNIGSKDVHWYQQKPGQAPVLVIYRDSNRPSGIPERFSGSNSGNTATLTISRAQAGDEADYYCQVWDSSTAVFGGGTQLTAL (field: Jurkat Cell Binding (FOI)) = 216

Jurkat Cell Binding (FOI) in this record for mAb 297 (antibody, V domains shown, VH and VL only) VH: EVQLLESGGGLVQPGGSLRLSCAASGFTFSSYAMNWVRQAPGKGLEWVSIISGGRRDDITYYAASVKGRFTISRDNSKNTLYLQMNSLRAEDTAVYYCAKMYNYYYYYIDVWGKGTTVTVSS VL: SYELTQPLSVSVALGQTAKITCGGNNIGSKDVHWYQQKPGQAPVLVIYRDSNRPSGIPERFSGSNSGNTATLTISRAQAGDEADYYCQVWDSNTAVFGGGTQLTAL : 220

Jurkat Cell Binding (FOI) reading for mAb 304 (antibody, V domains shown, VH and VL only) VH: EVQLLESGGGLVQPGGSRRLSCAASGFTFSSYAMSWVRQAPGKGLEWVSVISGRGDNTNYADSVKGRFTISRENSKNILYLQMNSLRAEDTAVYYCAKKYSYYYYYMDVWGKGTTVTVSS VL: SYELTQPLSVSVALGQTARITCGGNNIGSKDVHWYQQKPGQAPVLVIYRDSNRPSGIPERFSGSNSGNTATLTISRAQAGDEADYYCQVWDSRTAVFGGGTQLTAL : 234

Lab book: Jurkat Cell Binding (FOI) of mAb 303 (antibody, V domains shown, VH and VL only) VH: EVHLLESGGGLVQPGGSLRLSCAASGFTFSSYAMNWVRQAPGKGLEWISIISGGRRSGITYYAASVKGRFTISRDNSKNTLDLQMNSLRAEDTAVYYCAKMYNYYYYYIDVWGKGTTVTVSS VL: SYELTQPLSVSVALGQTARITCGGNNIGSKDVHWYQQKPGQAPVLVIYRDSNRPSGIPERFSGSNSGNTATLTISRAQAGDEADYYCQVWDSNTAVFGGGTQLTAL noted as 247

Value of measured Jurkat Cell Binding (FOI) for the entry mAb 292 (antibody, V domains shown, VH and VL only) VH: EVQLLESGGGLVQPGGSRRLSCAASGFTFSTYAMSWVRQAPGKGLEWVSVINGRGDDTNYADSVKGRFTISRDNSKNILFLQMNSLRAEDTAVYYCAKKYSYYYYYMDVWGKGTTVTVSS VL: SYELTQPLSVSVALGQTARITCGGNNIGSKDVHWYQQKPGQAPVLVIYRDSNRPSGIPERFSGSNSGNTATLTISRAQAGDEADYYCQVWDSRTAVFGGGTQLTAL : 227
